system: NCI-H23 lung; test: NCI tumour cell line growth inhibition, 48 h
valueType: TGI

TGI recorded for this compound, Cn1ncc2c(NCc3ccccc3)ncnc21 , is > 100 µM

The compound listed as CCc1n[nH]c(=O)n1-c1ccc2ccccc2c1 shows TGI equal to > 100 µM

So, CCCCCCCC(=O)OCC1OC(n2cc(F)c(=O)[nH]c2=O)C(N)C(OC(=O)CCCCCCC)C1O (stereo unspecified) ? Its TGI was 35.9 µM

Memo: Nc1c(S(=O)(=O)c2ccc(Cl)cc2)c2nc3ccccc3nc2n2ccnc12 , reported TGI: > 100 µM

// recorded TGI for COc1cc(/C=C2\CCCCC3=C2N=C2SC(C)=CN2C3c2cc(OC)c(OC)c(OC)c2)cc(OC)c1OC (stereo unspecified) : > 100 µM

The compound listed as CN1Nc2ccccc2CC1=O shows TGI equal to > 100 µM
